# folding stability dG per entry
B1: HEEH_KT_rd6_3546 (parent)
chain: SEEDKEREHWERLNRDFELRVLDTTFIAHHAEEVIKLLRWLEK

# Variants of: B1
# Assay Text: folding stability dG (cDNA display proteolysis); higher = more stable
# Condition Label: PBS, room temperature
Outcome Measure: folding stability dG (kcal/mol)

[[record]]
variant_annotation = "L22E"
outcome_measure = "folding stability dG"
endpoint_unit = "kcal/mol"
measured = 0.622

[[record]]
variant_annotation = "I27T"
outcome_measure = "folding stability dG"
endpoint_unit = "kcal/mol"
measured = 0.562

[[record]]
variant_annotation = "R7L"
outcome_measure = "folding stability dG"
endpoint_unit = "kcal/mol"
measured = 1.26

[[record]]
variant_annotation = "I27M"
outcome_measure = "folding stability dG"
endpoint_unit = "kcal/mol"
measured = 1.12

[[record]]
variant_annotation = "E6N"
outcome_measure = "folding stability dG"
endpoint_unit = "kcal/mol"
measured = 1.38

[[record]]
variant_annotation = "R7H"
outcome_measure = "folding stability dG"
endpoint_unit = "kcal/mol"
measured = 1.18

[[record]]
variant_annotation = "E42N"
outcome_measure = "folding stability dG"
endpoint_unit = "kcal/mol"
measured = 1.56

[[record]]
variant_annotation = "K5H"
outcome_measure = "folding stability dG"
endpoint_unit = "kcal/mol"
measured = 1.4

[[record]]
variant_annotation = "L22R"
outcome_measure = "folding stability dG"
endpoint_unit = "kcal/mol"
measured = 1.07

[[record]]
variant_annotation = "A28G"
outcome_measure = "folding stability dG"
endpoint_unit = "kcal/mol"
measured = 1.01

[[record]]
variant_annotation = "L22T"
outcome_measure = "folding stability dG"
endpoint_unit = "kcal/mol"
measured = 0.948

[[record]]
variant_annotation = "K5S"
outcome_measure = "folding stability dG"
endpoint_unit = "kcal/mol"
measured = 1.08

[[record]]
variant_annotation = "H29T"
outcome_measure = "folding stability dG"
endpoint_unit = "kcal/mol"
measured = 1.35

[[record]]
variant_annotation = "I35L"
outcome_measure = "folding stability dG"
endpoint_unit = "kcal/mol"
measured = 1.47

[[record]]
variant_annotation = "E18I"
outcome_measure = "folding stability dG"
endpoint_unit = "kcal/mol"
measured = 2.34

[[record]]
variant_annotation = "I35C"
outcome_measure = "folding stability dG"
endpoint_unit = "kcal/mol"
measured = 1.88

[[record]]
variant_annotation = "L37E"
outcome_measure = "folding stability dG"
endpoint_unit = "kcal/mol"
measured = -0.07

[[record]]
variant_annotation = "L37S"
outcome_measure = "folding stability dG"
endpoint_unit = "kcal/mol"
measured = 0.285

[[record]]
variant_annotation = "D4C"
outcome_measure = "folding stability dG"
endpoint_unit = "kcal/mol"
measured = 2.16

[[record]]
variant_annotation = "E11H"
outcome_measure = "folding stability dG"
endpoint_unit = "kcal/mol"
measured = 1.79

[[record]]
variant_annotation = "W40G"
outcome_measure = "folding stability dG"
endpoint_unit = "kcal/mol"
measured = 0.388

[[record]]
variant_annotation = "R20S"
outcome_measure = "folding stability dG"
endpoint_unit = "kcal/mol"
measured = 1.35

[[record]]
variant_annotation = "D23E"
outcome_measure = "folding stability dG"
endpoint_unit = "kcal/mol"
measured = 1.29

[[record]]
variant_annotation = "L37Y"
outcome_measure = "folding stability dG"
endpoint_unit = "kcal/mol"
measured = 1.23

[[record]]
variant_annotation = "D23H"
outcome_measure = "folding stability dG"
endpoint_unit = "kcal/mol"
measured = 2.01

[[record]]
variant_annotation = "R20F"
outcome_measure = "folding stability dG"
endpoint_unit = "kcal/mol"
measured = 2.21

